Value source: paper PMC5823845

assay: Log D pH 7.4, octanol/buffer shake flask method
Measured logD by item

CCOc1c(Cl)cc(C(=O)Nc2ccc(C(=O)O)cc2)cc1OC(C)C :: 1.7
CC(C)(C)Oc1c(Cl)cc(C(=O)Nc2ccc(C(=O)O)cc2)cc1Cl :: 2.6
CCOc1cc(C(=O)Nc2ccc(C(=O)O)c(C)c2)cc(Cl)c1OC(C)C :: 1.9

Inquiry: Which logD is listed for O=C(O)c1ccc(NC(=O)c2cc(Cl)c(OC3CCCC3)c(Cl)c2)cc1 ?
Reply text: 2.8

Inquiry: Could you do the same for CCOc1c(Cl)cc(C(=O)Nc2ccc(C(=O)O)c(C)c2)cc1Cl , please?
Reply text: 1.7

Inquiry: Could you do the same for CC(C)Oc1cc(C(=O)Nc2ccc(C(=O)O)cc2)cc(Cl)c1OC(C)C , please?
Reply text: 2.6

Inquiry: Could you do the same for COc1c(Cl)cc(C(=O)Nc2ccc(C(=O)O)c(F)c2)cc1OC(C)C , please?
Reply text: 1

Inquiry: Could you do the same for COc1c(Cl)cc(C(=O)Nc2ccc(C(=O)O)cc2)cc1OC(C)C , please?
Reply text: 1

Inquiry: Could you do the same for CC(C)Oc1cc(C(=O)Nc2ccc(C(=O)O)c(F)c2)cc(Cl)c1OC(C)C , please?
Reply text: 2

Inquiry: Could you do the same for COc1c(Cl)cc(C(=O)Nc2ccc(C(=O)O)c(C)c2)cc1OC(C)C , please?
Reply text: 1.3

Inquiry: Could you do the same for CCOc1c(Cl)cc(C(=O)Nc2ccc(C(=O)O)c(F)c2)cc1OC(C)C , please?
Reply text: 1.4

Inquiry: Could you do the same for Cc1cc(NC(=O)c2cc(Cl)c(OC(C)(C)C)c(OC(C)(C)C)c2)ccc1C(=O)O , please?
Reply text: 2.9

Inquiry: Could you do the same for CC1(C)CCC(C)(C)c2cc(C(=O)Nc3ccc(C(=O)O)cc3)ccc21 , please?
Reply text: 2.8

Inquiry: Could you do the same for CCOc1c(OC(C)C)cc(C(=O)Nc2ccc(C(=O)O)cc2)cc1OC(C)C , please?
Reply text: 1.6

Inquiry: Could you do the same for Cc1cc(NC(=O)c2cc(Cl)c(OC(C)C)c(OC(C)C)c2)ccc1C(=O)O , please?
Reply text: 2.3
